Target: Cannabinoid receptor 2 (Rattus norvegicus, UniProt Q9QZN9)
Sequence (Q9QZN9 whole entry): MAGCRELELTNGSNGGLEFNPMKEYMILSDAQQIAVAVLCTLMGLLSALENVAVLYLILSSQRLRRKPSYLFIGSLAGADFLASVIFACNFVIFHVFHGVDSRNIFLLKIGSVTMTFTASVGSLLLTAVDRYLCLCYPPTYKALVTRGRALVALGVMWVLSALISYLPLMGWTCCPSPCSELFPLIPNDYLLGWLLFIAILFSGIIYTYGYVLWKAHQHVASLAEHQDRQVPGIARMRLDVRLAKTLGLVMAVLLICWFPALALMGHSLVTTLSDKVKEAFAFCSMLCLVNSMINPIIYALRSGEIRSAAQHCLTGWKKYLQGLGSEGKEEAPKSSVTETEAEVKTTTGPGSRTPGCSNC
Experiment: Binding affinity to CB2 receptor in rat brain membrane
Assay type: cell membranes
IC50 values by entry

Example results:
>>> val("O=C(CCCCCCCCCCOc1cc(O)cc(O)c1)NCCO")
"> 10 µM"
>>> val("O=C(CCCCCCCCCCOc1cc(O)cc(O)c1)NCC1CC1")
"> 10 µM"

Bench note: what IC50 did O=C(CCCCCCCCCCOc1cc(O)cc(O)c1)NC1CC1 show? > 10 µM

* * *

Target: Cannabinoid receptor 2 (Homo sapiens)
Sequence (P34972 whole entry): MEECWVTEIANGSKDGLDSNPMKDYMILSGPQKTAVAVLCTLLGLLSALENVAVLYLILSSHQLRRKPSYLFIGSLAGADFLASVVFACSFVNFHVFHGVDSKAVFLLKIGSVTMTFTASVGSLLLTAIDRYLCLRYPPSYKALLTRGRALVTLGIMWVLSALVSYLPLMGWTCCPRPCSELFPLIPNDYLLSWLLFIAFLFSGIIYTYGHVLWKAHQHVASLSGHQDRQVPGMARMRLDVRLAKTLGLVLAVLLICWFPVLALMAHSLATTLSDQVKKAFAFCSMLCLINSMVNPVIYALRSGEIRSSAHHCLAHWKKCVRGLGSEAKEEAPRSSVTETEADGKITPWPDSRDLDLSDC
Test: Binding affinity to human recombinant CB2 receptor expressed in african green monkey COS cells by radioligand binding assay
Assay type: cell-based
Details: read-out: Ki
Classify: Condition met when Ki is strictly less than 100 nM; Condition not met when Ki is not.

// below: answered compounds
>>> qualitative_label("CCCCCCC(C)(C)c1cc(O)cc(OCCCCCCCC(=O)NCC2CC2)c1")
"Condition met"
>>> qualitative_label("CCCCOc1cc(O)cc(OCCCCCCCCCCC(=O)NCCO)c1")
"Condition not met"
>>> qualitative_label("CCCCCCC(C)(C)c1cc(O)cc(OCCCCCCCC(=O)NCCO)c1")
"Condition not met"
>>> qualitative_label("CC(C)CCOc1cc(O)cc(OCCCCCCCCCCC(=O)NCCO)c1")
"Condition not met"
>>> qualitative_label("CCCCCCC(C)(C)c1cc(O)cc(OCCCCCCCC(=O)NC2CC2)c1")
"Condition met"
>>> qualitative_label("CC(C)CCOc1cc(O)cc(OCCCCCCCCCCC(=O)NCC2CC2)c1")
"Condition not met"
>>> qualitative_label("CCCCCCCOc1cc(O)cc(OCCCCCCCCCCC(=O)NC2CC2)c1")
"Condition not met"
>>> qualitative_label("CCCCCCC(C)(C)c1cc(O)cc(OCCCCCCCCCCCC(=O)NCCO)c1")
"Condition met"
>>> qualitative_label("CCCCCCC(C)(C)c1cc(O)cc(OCCCCCCCCCCC(=O)NCCc2ccc(O)c(O)c2)c1")
"Condition not met"
>>> qualitative_label("CCCCCCC(C)(C)c1cc(O)cc(OCCCCCCCCCCCC(=O)NCC2CC2)c1")
"Condition not met"

# input for lookup
Item CCCCOc1cc(O)cc(OCCCCCCCCCCC(=O)NC2CC2)c1 : Ki beneath 100 nM, strictly? Condition not met

* * *

Biological target: Cannabinoid receptor 1 (Homo sapiens)
Sequence (P21554 whole entry): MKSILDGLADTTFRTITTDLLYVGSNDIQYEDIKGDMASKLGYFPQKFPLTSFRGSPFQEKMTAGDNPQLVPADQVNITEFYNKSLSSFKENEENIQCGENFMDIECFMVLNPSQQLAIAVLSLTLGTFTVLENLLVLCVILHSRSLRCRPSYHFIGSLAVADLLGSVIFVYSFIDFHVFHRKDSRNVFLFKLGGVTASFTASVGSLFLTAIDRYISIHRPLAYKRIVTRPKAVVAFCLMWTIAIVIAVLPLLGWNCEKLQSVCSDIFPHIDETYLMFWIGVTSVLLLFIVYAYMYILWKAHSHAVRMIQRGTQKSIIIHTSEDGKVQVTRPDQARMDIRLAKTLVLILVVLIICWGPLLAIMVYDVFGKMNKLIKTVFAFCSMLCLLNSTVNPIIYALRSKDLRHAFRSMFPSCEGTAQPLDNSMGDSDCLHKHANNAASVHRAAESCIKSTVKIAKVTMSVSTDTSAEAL
Assay: Binding affinity to human recombinant CB1 receptor expressed in african green monkey COS cells by radioligand binding assay
Type: cell-based
Details: read-out: Ki
pKi: −log10 of the molar value.
Could you label it Condition met if measured pKi is 7 or higher, and Condition not met otherwise?

As a guide, the following entries are already answered.
>>> qualitative_label("CCCCCCCOc1cc(O)cc(OCCCCCCCCCCC(=O)NCCO)c1")
"Condition not met"
>>> qualitative_label("CCCCCCC(C)(C)c1cc(O)cc(OCCCCCCCCCCCC(=O)NCC2CC2)c1")
"Condition not met"
>>> qualitative_label("CCCCOc1cc(O)cc(OCCCCCCCCCCC(=O)NC2CC2)c1")
"Condition not met"

Now turn to the next molecule.
In plain terms: is recorded pKi at least 7 for CCCCCCC(C)(C)c1cc(O)cc(OCCCCCCCCCCC(=O)NC2CC2)c1 ? Condition met

* * *

Here the recorded pIC50 is given for each entry.
Biological target: Cannabinoid receptor 2 (Rattus norvegicus, UniProt Q9QZN9)
Test: Binding affinity to CB2 receptor in rat spleen membrane
Assay type: cell membranes
pIC50: −log10 of the molar value.

Record excerpt, results attached:
>>> val("O=C(CCCCCCCCCCOc1cc(O)cc(O)c1)NCC1CC1")
"< 5.00"
>>> val("O=C(CCCCCCCCCCOc1cc(O)cc(O)c1)NCCO")
"< 5.00"

For the next question, use this compound.
Which pIC50 is reported for this compound? O=C(CCCCCCCCCCOc1cc(O)cc(O)c1)NC1CC1 < 5.00
